Some molecules, each annotated with its measured % de (diastereomeric excess of the cis-L-isomer).
# assay.overview: Enzyme screens for resolution of diastereomeric mixture CHLP(MEMC)/THLP(MEMC) (Example 13)
# Assay type: biochemical
# measurement.parameters: 0.050M each isomer; pH 7.0; 5 h; 5.0 to 50 mg/mL enzyme; 25° C.
Numeric answer only, unit % assumed.

Examples with their reported % de (diastereomeric excess of the cis-L-isomer) follow.
>>> measured_result("protease, type VIII: commercial enzyme preparation, source Bacillus licheniformis (protein, UniProt P00780 106-379, looked up) Subtilisin Carlsberg: AQTVPYGIPLIKADKVQAQGFKGANVKVAVLDTGIQASHPDLNVVGGASFVAGEAYNTDGNGHGTHVAGTVAALDNTTGVLGVAPSVSLYAVKVLNSSGSGSYSGIVSGIEWATTNGMDVINMSLGGASGSTAMKQAVDNAYAKGVVVVAAAGNSGSSGNTNTIGYPAKYDSVIAVGAVDSNSNRASFSSVGAELEVMAPGAGVYSTYPTNTYATLNGTSMASPHVAGAAALILSKHPNLSASQVRNRLSSTATYLGSSFYYGKGLINVEAAAQ")
6
>>> measured_result("protease (Chirazyme P1): commercial enzyme preparation, source Bacillus licheniformis (protein, UniProt P00780 106-379, looked up) Subtilisin Carlsberg: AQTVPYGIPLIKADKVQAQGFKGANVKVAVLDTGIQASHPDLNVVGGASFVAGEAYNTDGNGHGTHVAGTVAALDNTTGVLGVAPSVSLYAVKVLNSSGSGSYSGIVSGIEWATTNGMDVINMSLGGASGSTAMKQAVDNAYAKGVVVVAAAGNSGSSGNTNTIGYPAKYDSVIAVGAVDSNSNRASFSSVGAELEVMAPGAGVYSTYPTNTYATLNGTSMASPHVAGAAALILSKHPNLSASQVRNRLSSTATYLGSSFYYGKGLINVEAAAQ")
31

Turning now to a further molecule:
May I ask what % de (diastereomeric excess of the cis-L-isomer) has been recorded for protease, type XXVII: commercial enzyme preparation, (Nagarase) (protein, UniProt P00782 108-382, looked up) Subtilisin BPN': AQSVPYGVSQIKAPALHSQGYTGSNVKVAVIDSGIDSSHPDLKVAGGASMVPSETNPFQDNNSHGTHVAGTVAALNNSIGVLGVAPSASLYAVKVLGADGSGQYSWIINGIEWAIANNMDVINMSLGGPSGSAALKAAVDKAVASGVVVVAAAGNEGTSGSSSTVGYPGKYPSVIAVGAVDSSNQRASFSSVGPELDVMAPGVSIQSTLPGNKYGAYNGTSMASPHVAGAAALILSKHPNWTNTQVRSSLENTTTKLGDSFYYGKGLINVQAAAQ ?
16
